Where do these numbers come from? They come from paper PMC3375117.

Provide the recorded therapeutic window: times greater anti-leishmanial activity than cytotoxicity for the entries that follow.
# System: Vero cells
# assay comment: Vero cell toxicity
# assay context: Vero cells versus L. donovani
Answers are plain numbers, in times.

Each compound below has a recorded value; state its therapeutic window: times greater anti-leishmanial activity than cytotoxicity.
1. O=C1CCC2(Oc3cccc4cccc(c34)O2)c2c(O)ccc(O)c21
2. O=C1C=C[C@]23Oc4ccc(O)c5c4[C@](CCC5=O)(Oc4cccc1c42)O3
3. O=C1CCC2(Oc3cccc4cccc(c34)O2)c2cccc(O)c21
4. Oc1cccc2c1[C@@H](O)CCC21Oc2cccc3cccc(c23)O1

1: 130; 2: 12; 3: 41; 4: 75
